# Test system: HCC1954 breast ductal carcinoma
# Test: Cell viability (Cell Titer Glo 2.0) in HCC1954, 120 hours
# Type: cell-based
# Condition details: N-methylated analogs 1,2-/1,3-/1,4-NH2; relative to the 1,3-NH2 analog (=1)
Please use t for IC50 (fold difference) HCC1954 under 2 fold difference and f for everything else, ties included.

Smiles code	Class label
CC[C@H](C)[C@@H]([C@@H](CC(=O)N1CCC[C@H]1[C@H](OC)[C@@H](C)C(=O)N(C)CCc1ccccc1N)OC)N(C)C(=O)[C@@H](NC(=O)[C@H](C(C)C)N(C)C)C(C)C	t
CC[C@H](C)[C@@H]([C@@H](CC(=O)N1CCC[C@H]1[C@H](OC)[C@@H](C)C(=O)N(C)CCc1cccc(N)c1)OC)N(C)C(=O)[C@@H](NC(=O)[C@H](C)N(C)C)C(C)C	t
CC[C@H](C)[C@@H]([C@@H](CC(=O)N1CCC[C@H]1[C@H](OC)[C@@H](C)C(=O)N(C)CCc1ccccc1N)OC)N(C)C(=O)[C@@H](NC(=O)[C@H](C)N(C)C)C(C)C	t
CC[C@H](C)[C@@H]([C@@H](CC(=O)N1CCC[C@H]1[C@H](OC)[C@@H](C)C(=O)N(C)CCc1ccc(N)cc1)OC)N(C)C(=O)[C@@H](NC(=O)[C@H](C(C)C)N(C)C)C(C)C	f
CC[C@H](C)[C@@H]([C@@H](CC(=O)N1CCC[C@H]1[C@H](OC)[C@@H](C)C(=O)N(C)CCc1ccc(N)cc1)OC)N(C)C(=O)[C@@H](NC(=O)[C@H](C)N(C)C)C(C)C	f
CC[C@H](C)[C@@H]([C@@H](CC(=O)N1CCC[C@H]1[C@H](OC)[C@@H](C)C(=O)N(C)CCc1cccc(N)c1)OC)N(C)C(=O)[C@@H](NC(=O)[C@H](C(C)C)N(C)C)C(C)C	t
